# ASSAY NOTES: qHTS assay for re-activators of p53 using a Luc reporter: Hit Validation; also: nearly all actives have a fitted effect of over 75% in size; as to activation: 0% is about no effect
# CONDITIONS: p53-responsive luciferase reporter cells, luminescence, H1299 line expressing heat-sensitive Ala138Val p53; series mostly up to 46.1 µM
Records with an inconclusive call do not appear. The source made the active and inactive calls. Calls follow the shape of the dose curve; as a rule, active = well fitted activation curve with a large enough effect; inconclusive = small, poorly fitted or top-dose-only effect; inactive = no such curve, though single readings can be large or run the other way.
Entry note: the call must match one of 1 for active, -1 for inactive

Q. Tell me the assay call for Cc1nc(NC(=O)c2csc3ccccc23)sc1C please.
A. 1

Q. Also, CSC1=NCCN1C(=O)c1ccc(Br)o1 please.
A. -1

Q. Also, C#CCn1c(=NC(=O)c2cccs2)sc2cccc(OCC)c21 please.
A. -1

Q. Also, COc1cc(C(=S)N2CCOCC2)ccc1OC(=O)c1ccccc1C please.
A. -1

Q. Also, CCOC(=O)N1CCN(S(=O)(=O)c2ccc(C(=O)NNc3nc4c(C)cc(C)cc4s3)cc2)CC1 please.
A. -1

Q. Also, O=C(COC(=O)c1ccc(-c2nnc(-c3ccccc3)o2)cc1)c1ccccc1 please.
A. 1

Q. Also, CCOc1ccc(NS(=O)(=O)c2ccc(C(=O)NC3CCN(Cc4ccccc4)CC3)cc2)cc1 please.
A. -1

Q. Also, COc1ccc(NC(=O)CN(C)CC(=O)Nc2ccccc2SC)cc1 please.
A. -1

Q. Also, O=S(=O)(CCOc1ccccc1)c1nc2ccccc2[nH]1 please.
A. -1

Q. Also, COc1ccc(-n2nc([N+](=O)[O-])c(=NCc3ccco3)n2O)cc1 please.
A. -1

Q. Also, Cc1csc(NC(=O)CSc2nnc(-c3cccs3)n2C)n1 please.
A. -1

Q. Also, COc1ccc(-c2cc(C(F)(F)F)nc(-n3ccnc3C)n2)cc1 please.
A. -1

Q. Also, CC(C)(C)OC(=O)N1CCC(C(=O)Nc2ccc3c(c2)CCC3)CC1 please.
A. 1

Q. Also, Cc1ccc(-c2nnc(N(C)C(=O)C3CCCO3)s2)cn1 (stereo not drawn) please.
A. -1

Q. Also, O=c1cc(-c2ccc3c(c2)OCCO3)oc2ccc(Cl)cc12 please.
A. 1

Q. Also, Cc1ccsc1/C=C(\C#N)C(=O)Nc1c(C)n(C)n(-c2ccccc2)c1=O please.
A. -1

Q. Also, Clc1ccc(OCc2nc(-c3ccccn3)no2)c(Br)c1 please.
A. 1

Q. Also, O=C(CSc1nnc(-c2ccc(F)cc2)c2ccccc12)Nc1ccccc1 please.
A. -1

Q. Also, CCOC(=O)c1c(C)[nH]c(C(=O)CSc2ccccc2)c1C please.
A. 1

Q. Also, N#Cc1cccc(N=Cc2c(O)ccc3ccccc23)c1 please.
A. -1

Q. Also, O=C(N/N=C1\CCc2ccccc21)c1ccccc1O please.
A. 1

Q. Also, Cc1cc(C(=O)Nc2nc3c(s2)CCCC3)cs1 please.
A. 1

Q. Also, O=C(NNC(=O)c1cccnc1SCc1cccc([N+](=O)[O-])c1)c1ccccn1 please.
A. -1
